The measurements presented in this section are drawn from patent US8697694B2.

System: HCV replicon cells
Protocol: Cell-based HCV replicon assay (replicon RNA level by real time PCR, Taqman)
Setup conditions: Hepatitis C virus, 72 h, HCV replicon cells, harvested day 3, replicon RNA by real time PCR; reported as range class; read-out: EC90 (μM) range
Assay metric: EC90

CCOc1ccc2nc(-c3c(C)nc(N(C)C)nc3N[C@@H]3C[C@H](CO)[C@@H](O)[C@H]3O)sc2c1 : > 5 µM
Nc1nc(Cl)c(-c2cc3cc(F)cc(F)c3o2)c(N[C@@H]2C[C@H](CO)[C@@H](O)[C@H]2O)n1 : > 5 µM
CC(=O)OCCNc1nc(Cl)c(-c2nc3ccccc3s2)c(N[C@@H]2C[C@H](CO)[C@@H](O)[C@H]2O)n1 : < 0.5 µM
COCc1cc2cc(-c3c(Cl)nc(N)nc3N[C@@H]3C[C@H](CO)[C@@H](O)[C@H]3O)oc2cn1 : < 0.5 µM
CNC(=O)c1ccc2cc(-c3c(Cl)nc(N)nc3N[C@@H]3C[C@H](CO)[C@@H](O)[C@H]3O)oc2c1 : > 5 µM

Look up EC90 for the entries below, preserving their order.
1. COc1cc2cc(-c3c(Cl)nc(N)nc3N[C@@H]3C[C@H](COC(=O)C(F)(F)F)[C@@H](O)[C@H]3O)oc2cn1
2. OC[C@H]1C[C@@H](Nc2nc(N3CCOCC3)nc(Cl)c2-c2nc3ccccc3s2)[C@H](O)[C@@H]1O

Result block:
1: < 0.5 µM; 2: 0.5 to 5 µM

---

Test system: HCV replicon cells
Protocol: Cell-based HCV replicon assay (replicon RNA level by real time PCR, Taqman)
Setup conditions: Hepatitis C virus, 72 h, HCV replicon cells, harvested day 3, replicon RNA by real time PCR; given as number; read-out: EC90 (μM) range
Assay metric: EC90 (µM)
Give bare numbers, in µM.

Examples with their reported EC90 follow.
COCCNc1nc(C)c(-c2cc3cc(OCC4CC4)ncc3o2)c(N[C@@H]2C[C@H](CO)[C@@H](O)[C@H]2O)n1 : 2
COc1cc(CNc2nc(C)c(-c3cc4cc(OCC5CC5)ncc4o3)c(N[C@@H]3C[C@H](CO)[C@@H](O)[C@H]3O)n2)cc(OC)c1 : 0.06
CCCOc1cc2cc(-c3c(C)nc(NCCOC)nc3N[C@@H]3C[C@H](CO)[C@@H](O)[C@H]3O)oc2c(C)n1 : 0.1
CCCOc1cc2cc(-c3c(C)nc(NCC(F)(F)F)nc3N[C@@H]3C[C@H](CO)[C@@H](O)[C@H]3O)oc2c(C)n1 : 0.1

Now let's try a different one.
Query block: Look up EC90 for this molecule: CCN(CC)C(=O)OC[C@H]1C[C@@H](Nc2nc(NCC(F)(F)F)nc(C)c2-c2nc3ccccc3s2)[C@H](O)[C@@H]1O
Result block: 1

---

Test system: HCV replicon cells
Protocol: Cell-based HCV replicon assay (replicon RNA level by real time PCR, Taqman)
Setup conditions: Hepatitis C virus, 72 h, HCV replicon cells, harvested day 3, replicon RNA by real time PCR; reported as range class; read-out: EC90 (μM) range
Assay metric: EC90

Look up EC90 for the entries below, preserving their order.
1. Nc1nc(Cl)c(-c2ccccc2)c(N[C@@H]2C[C@H](CO)[C@@H](O)[C@H]2O)n1
2. Cc1ccc2oc(-c3c(Cl)nc(N)nc3N[C@@H]3C[C@H](CO)[C@@H](O)[C@H]3O)cc2n1
3. Cc1nc(N(C)C)nc(N[C@@H]2C[C@H](CO)[C@@H](O)[C@H]2O)c1-c1nc2ccccc2s1

Result block:
1: > 5 µM; 2: 0.5 to 5 µM; 3: < 0.5 µM
